Measured values drawn from a melting point compilation (Tetko et al.; mined from patent text by program, amines drawn as free bases though some values may be those of a salt) for this set.

melting point reference

>  <COMPOUND>
Cc1cc(COc2nn(Cc3ccccc3)cc2C=O)ccc1OCc1nc(-c2ccco2)oc1C

>  <ENDPOINT>
melting point

>  <TEST VALUE>
121 to 122 °C

$$$$

Lab note: next compound to report on.
IN: Which melting point is listed for Oc1cc2c(c(Cl)c1Cl)C(O)C(C1CCCC1)C2 (stereo not drawn) ?
OUT: 158 to 160 °C

----------
melting point reference

Some compounds with known melting point results, for comparison:
>  <COMPOUND>
Fc1cccc(Cl)c1CSc1nc2cnccc2[nH]1

>  <TEST VALUE>
224 to 226 °C

$$$$
>  <COMPOUND>
COC(=O)c1ccc2scc(Cl)c2n1

>  <TEST VALUE>
126 to 127 °C

$$$$
>  <COMPOUND>
Cc1cnn(CN(C(=O)CCl)c2c(C)cccc2C)c1

>  <TEST VALUE>
100 °C

$$$$

IN: Which melting point is listed for COc1ccc2ccc(N3C(=O)c4ccccc4C3CC(=O)CCc3ccccc3)nc2n1 (stereo unspecified) ?
OUT: 180 °C

----------
melting point reference

Some compounds with known melting point results, for comparison:
>  <COMPOUND>
N=C(N)NCc1ccc(N)c(I)c1

>  <melting point>
135 to 137 °C

$$$$
>  <COMPOUND>
CCCCN=C(O)c1c(Cl)c(Cl)c(Sc2ccccc2)c(Cl)c1C(=O)O

>  <melting point>
159 to 163 °C

$$$$
>  <COMPOUND>
N#Cc1nn(-c2c(Cl)cc(C(F)(F)F)cc2Cl)c(N)c1-c1cccc(F)c1

>  <melting point>
164 °C

$$$$
>  <COMPOUND>
CCc1nn(CCO)c(CC)c1Oc1cc(C#N)cc(-n2cncn2)c1

>  <melting point>
122 to 124 °C

$$$$

IN: Which melting point is listed for `CCOC(=O)C(=Cc1ccccc1[N+](=O)[O-])C(=O)C(OCC)OCC` ?
OUT: 66 to 67.5 °C

IN: Now this one: `CCN(CC)SNc1ccc(Oc2ccc(C(F)(F)F)cc2Cl)cc1F`
OUT: 58 to 60 °C

IN: Now this one: OC(c1c(Br)ccc2c1OCO2)c1cccc2cnccc12 (stereo not given)
OUT: 173 to 175 °C

IN: Now this one: `CC(C)(C)[Si](C)(C)Oc1ccc(NC(=O)CN2CCC(O)(Cc3ccc(Cl)cc3)CC2)cc1`
OUT: 135 to 136 °C

IN: Now this one: `CCn1cc(C(=O)O)c(=O)cc1-c1c(Cl)cccc1Cl`
OUT: 200 to 201 °C

IN: Now this one: CC(=O)OC1C(Oc2cc(C)cc(O)c2C(=O)CCc2ccc3occc3c2)OC(CO)C(O)C1O (stereo not given)
OUT: 160 °C

----------
ENDPOINT: melting point

>  <COMPOUND>
Cc1cc2c(cc1C#Cc1ccc(C(=O)O)cc1)C(C)(C)CCC2

>  <melting point>
203 to 206 °C

$$$$
>  <COMPOUND>
Clc1ccc(CC[C@H]2CN(Cc3ccccc3)CCN2Cc2ccccc2)cc1

>  <melting point>
87 to 90 °C

$$$$
>  <COMPOUND>
O=c1cc(-c2ccc(OCc3ccccc3)c(OCc3ccccc3)c2)oc2cc(OCCBr)ccc12

>  <melting point>
167 to 168 °C

$$$$
>  <COMPOUND>
c1ccc(COc2cccc(CSc3nc4cnccc4[nH]3)c2)cc1

>  <melting point>
161 to 164 °C

$$$$
>  <COMPOUND>
FC(F)(F)c1snc(-c2c(Cl)cc(Cl)c3nc(C4CC4)oc23)c1Cl

>  <melting point>
110 to 111 °C

$$$$
>  <COMPOUND>
Cc1c(C)c2c(c(C)c1NC(=O)c1ccc(F)cc1)C(c1ccc(C(C)C)cc1)C(C)(C)O2 (single isomer, unassigned; (+))

>  <melting point>
251 to 253 °C

$$$$
>  <COMPOUND>
COc1ccc(C(O)CNCc2cccc(OC)c2OC)cc1OC (centres undefined)

>  <melting point>
96 to 97 °C

$$$$
>  <COMPOUND>
Cn1c(C(F)(F)F)ccc(-c2c(F)cc(Cl)c3oc(CBr)cc23)c1=O

>  <melting point>
142 to 144 °C

$$$$

IN: Which melting point is listed for `O=C(O)c1ccc(-n2nc(-c3ccccc3O)nc2-c2ccccc2O)cc1` ?
OUT: 255 to 262 °C

IN: Now this one: `Cc1nnc2n1-c1ccc(C#CCN3C(=O)CN(C)C(=O)c4ccccc43)cc1C(c1ccccc1F)=NC2`
OUT: 179 to 182 °C

----------
ENDPOINT: melting point

Some compounds with known melting point results, for comparison:
>  <MOLECULAR STRING>
CCn1cc(C=O)c(-c2ccc([N+](=O)[O-])o2)n1

>  <melting point>
145 to 146 °C

$$$$
>  <MOLECULAR STRING>
Cc1nc(NC(=O)c2cccc(C#N)c2)sc1C(=O)NCc1ccccc1

>  <melting point>
207 to 208 °C

$$$$
>  <MOLECULAR STRING>
O=C(c1ccc2n1Cc1ccccc1N(S(=O)(=O)c1ccc(Br)cc1)C2)C(Cl)(Cl)Cl

>  <melting point>
182 to 183 °C

$$$$
>  <MOLECULAR STRING>
COc1ccc(-c2nnc3c4ccccc4c(Nc4cccc(-c5nnn(C)n5)c4)nn23)cc1

>  <melting point>
256 to 259 °C

$$$$
>  <MOLECULAR STRING>
Cc1ccc(C(=O)Nc2ccc(CN3CCN(C)CC3)c(C(F)(F)F)c2)cc1C#Cc1ccc(NC2CCC2)nn1

>  <melting point>
120 to 121 °C

$$$$
>  <MOLECULAR STRING>
Cc1ccc(-c2c(NS(=O)(=O)c3ccc(C(C)(C)C)cc3)ncnc2OCCOc2ncc(SC(C)C)cn2)cc1

>  <melting point>
162 °C

$$$$
>  <MOLECULAR STRING>
NS(=O)(=O)Oc1cccc(I)c1

>  <melting point>
106 to 108 °C

$$$$
>  <MOLECULAR STRING>
COc1cc2c(cc1O)CN(C(C)=O)CC2

>  <melting point>
142 to 144 °C

$$$$

IN: Which melting point is listed for `Nc1nc(Cl)cc(Oc2ccc3c(c2)OCCN3C(=O)OCc2ccccc2)n1` ?
OUT: 161 to 163 °C

----------
melting point reference

Some compounds with known melting point results, for comparison:
>  <COMPOUND>
COc1cc(C(=O)c2ncc3ccc(NC(=O)OC(C)(C)C)cn23)ccc1[N+](=O)[O-]

>  <melting point>
200 °C

$$$$
>  <COMPOUND>
COc1ccccc1-n1c(-c2cc(-c3ccc(S(C)(=O)=O)cc3)c(N3CCOCC3)s2)nc2ccccc2c1=O

>  <melting point>
222 to 223 °C

$$$$
>  <COMPOUND>
Cc1nc(COc2ccc3c(c2)[C@H](O)[C@H](Cc2cccnc2)CO3)ccc1Br (relative stereo)

>  <melting point>
134 to 137 °C

$$$$
>  <COMPOUND>
COCc1ccc2nc(SCCN3CCN(CC(=O)Nc4c(C(C)C)cccc4C(C)C)CC3)oc2c1COC

>  <melting point>
96 to 97 °C

$$$$
>  <COMPOUND>
COC(=O)c1cccc(-c2cccc(N)c2)c1

>  <melting point>
63 to 65 °C

$$$$

IN: Which melting point is listed for CNC(=O)Nc1cc2c(s1)CCCC2NC(=O)NC (centres undefined) ?
OUT: 233 to 234 °C

IN: Now this one: `CSC(=NNCCCCc1ncc(Br)cc1C)NC#N`
OUT: 127 to 128 °C

IN: Now this one: `Cc1ccc(S(=O)(=O)Nc2ccc(SC#N)cc2)cc1`
OUT: 122 to 124 °C

IN: Now this one: `O=c1oc(=O)n(Cc2ccc(F)cc2)c2ccc(F)cc12`
OUT: 107 °C

IN: Now this one: `C[C@H](C(=O)N[C@H](CO)Cc1ccccc1)c1ccc(NS(C)(=O)=O)c(F)c1`
OUT: 150 to 153 °C

IN: Now this one: `COc1cccc(CC(=O)O)c1OCCCc1cc(C(C)C)nn1Cc1ccc(Cl)cc1Cl`
OUT: 101 to 102 °C

IN: Now this one: Cc1nc2c(s1)CC(CO)CC2 (centres undefined)
OUT: 101 to 102 °C

IN: Now this one: `CS(=O)(=O)C(S(C)(=O)=O)S(=O)(=O)O`
OUT: > 300 °C

IN: Now this one: `CCOC(=O)NN(C)C(=O)Nc1ccc(OCc2ccc(Cl)cc2)cc1F`
OUT: 108 °C

IN: Now this one: `O=C1c2c(Cl)cccc2-n2cnc(-c3noc(CN4Cc5ccccc5C4)n3)c2[C@@H]2CCN12`
OUT: 218 to 222 °C

IN: Now this one: `CCOCc1nc2c(N)nc3ccccc3c2n1CCc1cc(-c2ccc(F)cc2)no1`
OUT: 180 to 181 °C

IN: Now this one: `COc1ncc(OC)c(NN)n1`
OUT: 115 to 117 °C

IN: Now this one: `CC(=O)NC(=O)c1ccc(OCCn2ccnc2)cc1`
OUT: 164 to 165 °C

IN: Now this one: `CCCC[C@@H](O)[C@H](O)CCCC`
OUT: 48 to 49 °C

IN: Now this one: Cc1c(C)c2c(c(C)c1N)CC(C)(CN1C(=O)c3ccccc3C1=O)O2 (centres undefined)
OUT: 147 to 150 °C

IN: Now this one: CC(C#N)CNc1ccccc1[N+](=O)[O-] (centres undefined)
OUT: 44 to 47 °C

IN: Now this one: `CCn1ncc2c(NCc3ccco3)c3ccccc3nc21`
OUT: 156 to 158 °C

IN: Now this one: `Clc1nc2c(c(N3CCCC3)n1)SCCC2`
OUT: 76 °C

IN: Now this one: `Cc1c(C)c2c(c(C)c1N)OC(C)(C)C2=O`
OUT: 150 to 151 °C

IN: Now this one: CSc1nc(OCC2COC(C)(C)O2)c2c(-c3ccccc3Cl)n[nH]c2n1 (centres undefined)
OUT: 120 to 122 °C

IN: Now this one: `OCc1nccc2c1CCCC2`
OUT: 81 to 82 °C

IN: Now this one: `Cn1nc(N)nc1NCCCOc1ccc(CN2CCCCC2)cc1`
OUT: 104 to 105 °C

IN: Now this one: `CCOC(=O)CN(SN(C)C(=O)Oc1cccc2c1OC(C)(C)C2)c1ccccc1`
OUT: 92 to 93 °C

IN: Now this one: `CCOC(=O)c1cnc2c(N=C3C(=O)OC(C)(C)OC3=O)cccc2c1`
OUT: 228 to 231 °C

IN: Now this one: `Cc1ncc(CCCOc2c(C)cc(C#N)cc2C)s1`
OUT: 64 to 66 °C
